Recorded log10 IC50 for the following compounds
- Tested target: Amine oxidase [flavin-containing] A (Homo sapiens)
- Sequence (P21397 whole entry): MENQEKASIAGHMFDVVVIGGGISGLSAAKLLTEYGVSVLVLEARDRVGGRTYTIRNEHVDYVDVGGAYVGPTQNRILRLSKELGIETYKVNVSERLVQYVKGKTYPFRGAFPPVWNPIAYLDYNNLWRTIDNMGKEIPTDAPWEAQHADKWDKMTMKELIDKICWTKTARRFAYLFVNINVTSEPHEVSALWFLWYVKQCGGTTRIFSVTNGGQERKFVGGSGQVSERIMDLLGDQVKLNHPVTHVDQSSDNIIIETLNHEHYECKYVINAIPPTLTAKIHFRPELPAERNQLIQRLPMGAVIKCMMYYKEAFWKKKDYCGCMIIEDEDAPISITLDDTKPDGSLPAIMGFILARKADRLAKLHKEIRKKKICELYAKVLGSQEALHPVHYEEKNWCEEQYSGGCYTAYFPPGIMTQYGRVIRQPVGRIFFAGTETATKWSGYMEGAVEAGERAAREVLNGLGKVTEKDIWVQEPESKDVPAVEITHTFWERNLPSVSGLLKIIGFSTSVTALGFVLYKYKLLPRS
- Protocol details: Inhibition of recombinant human MAO-A using tyramine hydrochloride as substrate preincubated for 5 mins followed by substrate addition and measured after 5 mins in presence of horse radish peroxidase by Ampliflu Red based fluorescence microplate reader
A difference of one corresponds to tenfold IC50; all values are log10 with IC50 in µM.

COc1ccc(/C=C/C(=O)c2ccc([N+](=O)[O-])cc2)cc1 = 1.43
O=C(/C=C/c1ccc(F)cc1)c1ccc([N+](=O)[O-])cc1 = 0.89
O=C(/C=C/c1ccc2ccccc2c1)c1ccc([N+](=O)[O-])cc1 = 1.11

The compound listed as "O=C(/C=C/c1ccc(Cl)c(Cl)c1)c1ccc([N+](=O)[O-])cc1" shows log10 IC50 equal to 1.77

The compound listed as "Cc1ccc(/C=C/C(=O)c2ccc([N+](=O)[O-])cc2)cc1" shows log10 IC50 equal to 0.43

The compound listed as "O=C(/C=C/c1ccc(Cl)cc1)c1ccc([N+](=O)[O-])cc1" shows log10 IC50 equal to 1.72

The compound listed as "Cc1ccccc1/C=C/C(=O)c1ccc([N+](=O)[O-])cc1" shows log10 IC50 equal to 1.95
